Source of measurements: patent US8304394B2

target_desc: CYP2E1 (Homo sapiens, UniProt P05181)
Sequence (P05181 whole entry): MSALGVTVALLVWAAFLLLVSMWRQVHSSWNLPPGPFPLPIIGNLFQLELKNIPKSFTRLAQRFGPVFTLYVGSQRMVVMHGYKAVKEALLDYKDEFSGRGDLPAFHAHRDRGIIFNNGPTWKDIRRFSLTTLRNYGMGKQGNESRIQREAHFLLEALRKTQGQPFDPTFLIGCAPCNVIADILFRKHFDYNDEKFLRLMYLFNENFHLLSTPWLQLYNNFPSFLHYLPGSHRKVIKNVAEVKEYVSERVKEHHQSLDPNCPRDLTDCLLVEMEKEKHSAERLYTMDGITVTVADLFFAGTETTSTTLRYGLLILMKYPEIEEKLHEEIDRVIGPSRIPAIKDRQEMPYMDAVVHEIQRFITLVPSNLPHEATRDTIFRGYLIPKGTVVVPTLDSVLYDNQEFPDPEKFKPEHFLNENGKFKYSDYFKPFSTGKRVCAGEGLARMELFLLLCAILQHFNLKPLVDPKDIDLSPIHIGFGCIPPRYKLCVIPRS
experimental_details: Chlorzoxazone hydroxylation inhibition (6-OH-CZX by LC/MS/MS)
measurement_setup: human, microsomes, pH 7.4

{"molecule": "CCN(CC)C(=S)S [DDTC, Diethyldithiocarbamic acid]", "inhibition at 30 min, 50 μM [%]": 48.7}

* * *

target_desc: CYP2E1 (Homo sapiens)
experimental_details: Chlorzoxazone hydroxylation inhibition (6-OH-CZX by LC/MS/MS)
measurement_setup: human, microsomes, pH 7.4
inhibition at 30 min, 33 µM overview
value_kind: inhibition at 30 min, 33 µM (%)

{"molecule": "C[C@@H]1O[C@@H](OC[C@H]2O[C@@H](Oc3c(-c4ccc(O)c(O)c4)oc4cc(O)cc(O)c4c3=O)[C@H](O)[C@@H](O)[C@@H]2O)[C@H](O)[C@H](O)[C@H]1O", "observed": 30.1}
{"molecule": "COc1ccc(-c2cc(=O)c3c(O)cc(O[C@@H]4O[C@H](CO[C@@H]5O[C@@H](C)[C@H](O)[C@@H](O)[C@H]5O)[C@@H](O)[C@H](O)[C@H]4O)cc3o2)cc1O", "observed": 43.1}
{"molecule": "O=C(O)[C@H]1O[C@@H](Oc2cc3oc(-c4ccccc4)cc(=O)c3c(O)c2O)[C@H](O)[C@@H](O)[C@@H]1O", "observed": 35.6}
{"molecule": "O=c1c(O)c(-c2ccc(O)cc2)oc2cc(O)cc(O)c12", "observed": 74.7}
{"molecule": "COc1cc(-c2oc3cc(O)cc(O)c3c(=O)c2O)ccc1O", "observed": 18.7}
{"molecule": "O=c1cc(-c2ccccc2)oc2cc(O)c(O)c(O)c12", "observed": 47.8}
{"molecule": "O=c1cc(-c2ccc(O)cc2)oc2c([C@@H]3O[C@H](CO)[C@@H](O)[C@H](O)[C@H]3O)c(O)cc(O)c12", "observed": 30.6}
{"molecule": "C[C@@H]1O[C@@H](Oc2c(-c3ccc(O)c(O)c3)oc3cc(O)cc(O)c3c2=O)[C@H](O)[C@H](O)[C@H]1O", "observed": 53.8}
{"molecule": "COc1ccc(-c2oc3cc(O)cc(O)c3c(=O)c2O)cc1O", "observed": 47.8}
{"molecule": "O=C1C[C@@H](c2ccc(O)cc2)Oc2cc(O)cc(O)c21", "observed": 28.4}
{"molecule": "O=c1c(O)c(-c2ccc(O)cc2O)oc2cc(O)cc(O)c12", "observed": 52.1}
{"molecule": "O=C/C=C/c1ccccc1 [Trans-Cinnamaldehyde]", "observed": 89.6}
{"molecule": "O=c1c(O[C@@H]2O[C@H](CO)[C@H](O)[C@H](O)[C@H]2O)c(-c2ccc(O)c(O)c2)oc2cc(O)cc(O)c12 [Hyperoside]", "observed": 35.6}
{"molecule": "O=c1c(O)c(-c2ccc(O)c(O)c2)oc2cc(O)cc(O)c12", "observed": 53}
{"molecule": "CCCCCCCCCCCCCC(=O)OCC [Ethyl Myristate]", "observed": 41}
{"molecule": "O=c1cc(-c2ccc(O)c(O)c2)oc2cc(O)cc(O)c12", "observed": 43.4}
{"molecule": "C=CC(=C)CCC=C(C)C", "observed": 75.5}

* * *

target_desc: CYP2E1 (Homo sapiens, UniProt P05181)
experimental_details: Chlorzoxazone hydroxylation inhibition (6-OH-CZX by LC/MS/MS)
measurement_setup: human, microsomes, pH 7.4
Threshold rule: inhibition at 30 min, 66 µM greater than or equal to 60% is Criterion met; below that, Criterion not met.

{"compound": "COc1ccc([C@@H]2CC(=O)c3c(O)cc(O)cc3O2)cc1O", "class_name": "Criterion not met"}
{"compound": "CC(Cc1ccc(O)c(O)c1)C(C)Cc1ccc(O)c(O)c1 (stereo not drawn) [Nordihydroguaiaretic acid]", "class_name": "Criterion met"}
{"compound": "O=c1cc(-c2ccc(O)cc2)oc2cc(O)cc(O)c12", "class_name": "Criterion not met"}
{"compound": "O=c1cc(-c2ccc(O)cc2)oc2c([C@@H]3O[C@H](CO)[C@@H](O)[C@H](O)[C@H]3O)c(O)cc(O)c12", "class_name": "Criterion not met"}
{"compound": "O=C(O)[C@H]1O[C@@H](Oc2cc3oc(-c4ccccc4)cc(=O)c3c(O)c2O)[C@H](O)[C@@H](O)[C@@H]1O", "class_name": "Criterion not met"}
{"compound": "C[C@@H]1O[C@@H](OC[C@H]2O[C@@H](Oc3c(-c4ccc(O)c(O)c4)oc4cc(O)cc(O)c4c3=O)[C@H](O)[C@@H](O)[C@@H]2O)[C@H](O)[C@H](O)[C@H]1O", "class_name": "Criterion not met"}
{"compound": "C=CC(=C)CCC=C(C)C", "class_name": "Criterion met"}
{"compound": "O=C(O)c1cc(O)c(O)c(O)c1", "class_name": "Criterion not met"}
{"compound": "O=c1c(O[C@@H]2O[C@H](CO)[C@H](O)[C@H](O)[C@H]2O)c(-c2ccc(O)c(O)c2)oc2cc(O)cc(O)c12 [Hyperoside]", "class_name": "Criterion not met"}
{"compound": "O=c1cc(-c2ccccc2)oc2cc(O)c(O)c(O)c12", "class_name": "Criterion not met"}
{"compound": "O=c1c(O)c(-c2ccc(O)cc2)oc2cc(O)cc(O)c12", "class_name": "Criterion met"}
{"compound": "COc1ccc(-c2cc(=O)c3c(O)cc(O[C@@H]4O[C@H](CO[C@@H]5O[C@@H](C)[C@H](O)[C@@H](O)[C@H]5O)[C@@H](O)[C@H](O)[C@H]4O)cc3o2)cc1O", "class_name": "Criterion not met"}
{"compound": "O=c1cc(-c2ccc(O)c(O)c2)oc2cc(O)cc(O)c12", "class_name": "Criterion not met"}
{"compound": "COc1ccc(-c2oc3cc(O)cc(O)c3c(=O)c2O)cc1O", "class_name": "Criterion not met"}
{"compound": "O=C1C[C@@H](c2ccc(O)cc2)Oc2cc(O)cc(O)c21", "class_name": "Criterion not met"}

* * *

target_desc: CYP2E1 (Homo sapiens, UniProt P05181)
experimental_details: in vitro
measurement_setup: pH 7.4, Inhibition of CYP 2E1 (%), DDTC 7.4 μM

{"given_smiles": "CCN(CC)C(=S)S", "inhibition at 40 min, 7.4 μM [%]": 90.5}

* * *

target_desc: CYP2E1 (Homo sapiens)
experimental_details: Chlorzoxazone hydroxylation inhibition (6-OH-CZX by LC/MS/MS)
measurement_setup: human, microsomes, pH 7.4
inhibition at 30 min, 66 µM overview

{"compound": "COc1cc(-c2oc3cc(O)cc(O)c3c(=O)c2O)ccc1O [Isorhamnetin]", "inhibition at 30 min, 66 µM [%]": 36.3}
{"compound": "COc1cc(C2Oc3cc([C@H]4Oc5cc(O)cc(O)c5C(=O)[C@@H]4O)ccc3OC2CO)ccc1O (stereo partly drawn) [Silybin]", "inhibition at 30 min, 66 µM [%]": 39}
{"compound": "O=c1c(-c2ccc(O)cc2)coc2cc(O)cc(O)c12 [Genistein]", "inhibition at 30 min, 66 µM [%]": 36.9}
{"compound": "O=c1c(-c2ccc(O)cc2)coc2cc(O)ccc12 [Daidzein]", "inhibition at 30 min, 66 µM [%]": 86.8}
{"compound": "O=C/C=C/c1ccccc1 [Trans-Cinnamaldehyde]", "inhibition at 30 min, 66 µM [%]": 92.8}
{"compound": "O=C(CCc1ccc(O)cc1)c1c(O)cc(O)cc1O [Phloretin]", "inhibition at 30 min, 66 µM [%]": 50.9}
{"compound": "CCCCCCCCCCCCCC(=O)OCC [Ethyl Myristate]", "inhibition at 30 min, 66 µM [%]": 52}
{"compound": "O=c1c(O)c(-c2ccc(O)c(O)c2)oc2cc(O)cc(O)c12 [Quercetin]", "inhibition at 30 min, 66 µM [%]": 73.3}
{"compound": "O=c1cc(-c2ccc(O)cc2)oc2cc(O)c([C@@H]3O[C@H](CO)[C@@H](O)[C@H](O)[C@H]3O)c(O)c12 [Isovitexin]", "inhibition at 30 min, 66 µM [%]": 81.8}

* * *

target_desc: cDNA expressed human cytochrome P450 2E1 (CYP2E1) (Homo sapiens, UniProt P05181)
Sequence (P05181 whole entry): as above
measurement_setup: tested concentration 66 μM

{"compound": "COc1c(O)cc2oc(Oc3ccc(O)cc3)cc(=O)c2c1O", "Inhibition of CYP 2E1 (%)": 76.12}
{"compound": "O=c1cc(-c2ccccc2)oc2ccc3ccccc3c12", "Inhibition of CYP 2E1 (%)": 15.40}
{"compound": "Oc1cc(O)c2c(c1)O[C@H](c1ccc(O)c(O)c1)[C@@H](O)C2 [(+)-Catechin]", "Inhibition of CYP 2E1 (%)": 16.45}
{"compound": "Oc1cc(O)c2c(c1)O[C@H](c1ccc(O)c(O)c1)[C@H](O)C2 [(−)-Epicatechin]", "Inhibition of CYP 2E1 (%)": 2.57}
